Target: T1, human soluble urokinase plasminogen activator receptor (suPAR) (human, UniProt Q03405 23-303, limits assumed)
T1 construct: Target antigen of the off-rate screen; also called hsuPAR; human suPAR
T1 sequence (Q03405 23-303 limits assumed): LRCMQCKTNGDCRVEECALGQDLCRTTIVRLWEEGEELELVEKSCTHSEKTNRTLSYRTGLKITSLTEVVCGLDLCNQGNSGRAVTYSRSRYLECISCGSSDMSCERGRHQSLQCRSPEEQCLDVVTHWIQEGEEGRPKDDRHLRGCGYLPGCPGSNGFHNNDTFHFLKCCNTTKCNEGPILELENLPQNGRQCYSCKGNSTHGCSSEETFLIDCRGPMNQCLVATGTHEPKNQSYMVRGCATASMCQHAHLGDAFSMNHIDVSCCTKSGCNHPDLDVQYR
Test: off-rate (kdis) screen of scFv clones, biosensor (Octet)
metric: koff (s⁻¹)
Numbers only here, please. The scale is s⁻¹.

Solved cases below.
suPAR_DB01_C11 (scFv, V domains shown, screened as scFv) VH: QVQLVQSGAEVKKPGASVKVSCKASGGTFTSYYMHWVRQAPGQGLEWMGWIDPENGSTIYDQKFQGRVTMTRDTSTSTVYMELSSLRSEDTAVYYCARGYDVDWFVYWGQGTLVTVSS VL: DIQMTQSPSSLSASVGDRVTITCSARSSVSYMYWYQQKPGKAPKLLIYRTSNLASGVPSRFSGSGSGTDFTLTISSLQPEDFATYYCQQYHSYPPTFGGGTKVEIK ... 0.00226
suPAR_DB01_A05 (scFv, V domains shown, screened as scFv) VH: QVQLVQSGAEVKKPGASVKVSCKASGYTFTGYYMHWVRQAPGQGLEWMGWIDHENGNTIYDQKFQGRVTMTRDTSTSTVYMELSSLRSEDTAVYYCARGYDVDWFVYWGQGTLVTVSS VL: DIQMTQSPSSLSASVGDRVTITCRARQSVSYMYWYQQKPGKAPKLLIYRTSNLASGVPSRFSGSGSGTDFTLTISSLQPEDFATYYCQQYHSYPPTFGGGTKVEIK ... 0.00174

Q. Endpoint output: koff of suPAR_DB01_E08 (scFv, V domains shown, screened as scFv) VH: QVQLVQSGAEVKKPGASVKVSCKASGYTFTGYYIHWVRQAPGQGLEWMGWIDHENGSTIYDQKFQGRVTMTRDTSTSTVYMELSSLRSEDTAVYYCARGYDVDWFVYWGQGTLVTVSS VL: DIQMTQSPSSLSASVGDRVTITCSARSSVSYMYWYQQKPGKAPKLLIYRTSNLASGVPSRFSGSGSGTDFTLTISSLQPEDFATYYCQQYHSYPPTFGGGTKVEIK . Value?
A. 0.000564
